These data points were gathered from PubChem BioAssay (NCATS).

assay.explanation: Quantitative highthroughput screen to assess conditional lethalithy of NOMO1 cells grown in Human Plasma-Like Medium with dialyzed fetal bovine serum (HPLM+ds) (AID 1963878); further: nearly all actives have a fitted effect of over 35% in size
conditions.used: NOMO1 AML cells in HPLM+ds, CellTiter-Glo viability, 48 h; series mostly up to 45.8 µM
Inconclusive results are not listed. Calls of active or inactive are those of the source. The call rests on the fitted dose curve; in most records, active means well fitted cell-killing curve with a large enough effect; inconclusive means small, poorly fitted or top-dose-only effect, or effect the other way; inactive means no such curve, though single readings can be large or run the other way.
Outcomes: true for active, false for inactive

1) O=C(N[C@@H](c1ccccc1)[C@@H]1CCCCN1)c1cccc(C(F)(F)F)c1Cl : false
2) NC(=O)c1ccc(-c2nc(-c3ccc4c(c3)OCO4)c(-c3ccccn3)[nH]2)cc1 : false
3) Cc1cnc(Nc2ccc(CN3CCOCC3)cc2)nc1Nc1cccc(S(=O)(=O)NC(C)(C)C)c1 : true
4) CC(=O)Oc1ccccc1C(=O)O : false
5) O=P(O)(O)C(O)(Cn1ccnc1)P(=O)(O)O : false
6) Cc1cccc2c1CC[C@H](CN1CCC(c3c(Cl)cccc3Cl)CC1)C[C@@H]2O : true
7) CCN(CC)CCOc1ccc(Nc2ncc3cc(-c4c(Cl)cccc4Cl)c(=O)n(C)c3n2)cc1 : true
8) COC(=O)C1C2CC3c4[nH]c5cc(OC)ccc5c4CCN3CC2CC(OC(=O)c2cc(OC)c(OC)c(OC)c2)C1OC (configuration not stated) : false
9) C=C1CCC2[C@](C)(CO)C(O)CC[C@]2(C)C1CC=C1C(=O)OCC1O (some centres not stated) : false
10) CC(C)c1nc(CN(C)C(=O)N[C@H](C(=O)N[C@@H](Cc2ccccc2)C[C@H](O)[C@H](Cc2ccccc2)NC(=O)OCc2cncs2)C(C)C)cs1 : false
11) CCN[C@H]1C[C@H](C)S(=O)(=O)c2sc(S(N)(=O)=O)cc21 : false
12) CC(C=CC1=C(C)CCCC1(C)C)=CC=CC(C)=CC(=O)O : false

----------
assay.explanation: Quantitative highthroughput screen to assess conditional lethalithy of P12 Ichikawa cells grown in RPMI1640 with dialyzed fetal bovine serum (RPMI+ds) (AID 1963880); further: nearly all actives have a fitted effect of over 35% in size
conditions.used: ATP luminescence, 48 h; P12-Ichikawa viability; series mostly up to 45.8 µM
Results filed as inconclusive are left out. Calls of active or inactive are those of the source. The call rests on the fitted dose curve; in most records, active means well fitted cell-killing curve with a large enough effect; inconclusive means small, poorly fitted or top-dose-only effect; inactive means flat fitted curve, though single readings scatter. Numbered stars: 1 amine (or outer) side, 2 acyl side, 3 side chain; on linkers, the order of the positions; unused ones are H or OH. Bridge positions count the residues as written; N and C are the ends. Square brackets hold non-standard residues; d marks the D form. Peptide text beside a SMILES is read from it. I, II: the chains in the order shown. Actinocin(9to1) = Cc1c2oc3c(C)ccc(C(=O)[*:1])c3nc-2c(C(=O)[*:2])c(N)c1=O; NMeV = CN[CH](C(=O)O)C(C)C; Sar = CNCC(=O)O
Outcomes: active, inactive

1. CCOC(=O)O[C@]1(C(=O)OCCl)CC[C@@H]2[C@H]3CCC4=CC(=O)C=C[C@]4(C)[C@@H]3[C@@H](O)C[C@@]21C : inactive
2. CCCCC(CC)COC(=O)C(C#N)=C(c1ccccc1)c1ccccc1 (stereo not drawn) : inactive
3. Cc1c2oc3c(C)ccc(C(=O)NC4C(=O)NC(C(C)C)C(=O)N5CCCC5C(=O)N(C)CC(=O)N(C)C(C(C)C)C(=O)OC4C)c3nc-2c(C(=O)NC2C(=O)NC(C(C)C)C(=O)N3CCCC3C(=O)N(C)CC(=O)N(C)C(C(C)C)C(=O)OC2C)c(N)c1=O (stereo not drawn) (I: TVP[Sar][NMeV] / II: TVP[Sar][NMeV]; ester I:1-I:C, II:1-II:C; linker I:N-II:N via Actinocin(9to1); configuration not given here) : inactive
4. COc1ccc(C[C@@H](C)[C@@H](C)Cc2ccc(OC)c(OC)c2)cc1OC : active
5. O=C1NC(=O)C(=Cc2cccc(C(F)(F)F)c2)S1 : inactive
6. CS(=O)(=O)c1ccc(Oc2cc(F)cc(C#N)c2)c2c1[C@H](O)C(F)(F)C2 : inactive
7. CC[C@]1(O)C[C@H]2CN(CCc3c([nH]c4ccccc34)[C@@](C(=O)OC)(c3cc4c(cc3OC)N(C=O)[C@H]3[C@@](O)(C(=O)OC)[C@H](OC(C)=O)[C@]5(CC)C=CCN6CC[C@]43[C@@H]65)C2)C1 : active
8. Cn1c(Nc2ccc(C(F)(F)F)cc2)nc2cc(Oc3ccnc(-c4ncc(C(F)(F)F)[nH]4)c3)ccc21 : active

----------
assay.explanation: Cellular viability qHTS for adrenocortical cancer (ACC) cell line NCI-H295R (AID 1963990); further: nearly all actives have a fitted effect of over 60% in size
conditions.used: CellTiter-Glo ATP luminescence, 48 h; series mostly up to 46.1 µM
Results filed as inconclusive are left out. Active and inactive are the calls of the source. Calls come from the whole dose curve; as a rule, active = well fitted cell-killing curve with a large enough effect; inconclusive = small, poorly fitted or top-dose-only effect; inactive = flat fitted curve, though single readings scatter.
Outcomes: active, inactive

1. CCNCCc1ccc(CN(CC)c2cc(OC)ccc2[C@@H]2CCc3cc(O)ccc3C2)cc1 : active
2. Cc1ccc(C(=O)Nc2ccc(CN3CCN(C)CC3)c(C(F)(F)F)c2)cc1C#Cc1cnc2cccnn12 : active
3. C[C@@H]1C[C@H]2[C@@H]3C[C@H](F)C4=CC(=O)C=C[C@]4(C)[C@@]3(F)[C@@H](O)C[C@]2(C)[C@@]1(O)C(=O)CO : inactive
4. C[C@](N)(Cc1ccc(O)c(O)c1)C(=O)O : inactive
5. CNc1nc(C)nc(N[C@H]2CCC[C@@H](C(=O)NCc3ccc(C#N)cc3C(F)(F)F)C2)n1 : inactive

----------
assay.explanation: Quantitative highthroughput screen to assess conditional lethalithy of P12 Ichikawa cells grown in RPMI1640 with dialyzed fetal bovine serum (RPMI+ds) (AID 1963880); further: nearly all actives have a fitted effect of over 35% in size
conditions.used: ATP luminescence, 48 h; P12-Ichikawa viability; series mostly up to 45.8 µM
Records with an inconclusive call do not appear. The source made the active and inactive calls. Calls follow the shape of the dose curve; as a rule, active = well fitted cell-killing curve with a large enough effect; inconclusive = small, poorly fitted or top-dose-only effect; inactive = flat fitted curve, though single readings scatter. Peptide text beside a SMILES is read from it.
Outcomes: y for active, n for inactive

1. CCc1cc(C(N)=S)ccn1 : y
2. Nc1nc(Cl)nc2c1ncn2[C@H]1C[C@H](O)[C@@H](CO)O1 : y
3. O=C(c1ccc(F)cc1)C1CCN(CCn2c(=O)[nH]c3ccccc3c2=O)CC1 : n
4. COC(=O)[C@H](Cc1ccccc1)NC(=O)[C@@H](N)CC(=O)O (H-Asp-Phe-OMe) : n
5. COc1cc2c(cc1OC)C1CC(=O)C(CC(C)C)CN1CC2 (stereo not given) : n

----------
assay.explanation: Viability qHTS for spleen associated tyrosine kinase inhibitor (SYKi) naive MV4-11 cells (AID 1963823); further: nearly all actives have a fitted effect of over 40% in size
conditions.used: MV4-11 AML viability, CellTiter-Glo luminescence, 72 h; series mostly up to 45 µM
Inconclusive results are not listed. Activity calls are given as the source filed them. The call rests on the fitted dose curve; in most records, active means well fitted cell-killing curve with a large enough effect; inconclusive means small, poorly fitted or top-dose-only effect, or effect the other way; inactive means no such curve, though single readings can be large or run the other way.
Outcomes: TRUE = active, FALSE = inactive

1) CCCCNc1ccc(C(=O)OCCOCCOCCOCCOCCOCCOCCOCCOCCOC)cc1 : TRUE
2) CC(/C=C/C1=CC2=CC(=O)C(C)(O)C(O)C2=CO1)=C\C(C)CCO (stereo not given) : FALSE
3) COc1ccc(CN(CCN(C)C)c2ccccn2)cc1 : TRUE
4) O=C(CCCCc1ccc2ccccc2c1)C(F)(F)F : FALSE
5) C/C=C/C1=CC2=C(CO1)C(=O)C(C)(O)C(OC(=O)c1c(C)cc(OC)cc1O)C2 (stereo not given) : TRUE

----------
assay.explanation: Viability qHTS for spleen associated tyrosine kinase inhibitor (SYKi) naive MV4-11 cells (AID 1963823); further: nearly all actives have a fitted effect of over 40% in size; further: potency means the concentration at half of the fitted maximal effect
conditions.used: MV4-11 AML viability, CellTiter-Glo luminescence, 72 h; series mostly up to 45 µM
Records with an inconclusive call do not appear. Active and inactive are the calls of the source. Calls come from the whole dose curve; as a rule, active = well fitted cell-killing curve with a large enough effect; inconclusive = small, poorly fitted or top-dose-only effect, or effect the other way; inactive = no such curve, though single readings can be large or run the other way.
recorded.metric: Potency

1. CC1C2=CC(=O)OC2(O)CC2C1C(OC(=O)c1ccccc1)C(OC(=O)c1ccccc1)C1(O)C2(C)CCC(O)C1(C)C(=O)O (stereo not drawn) : inactive
2. C=C1CCC2C(C)(C(=O)OC)CCCC2(C)C1CCC(C)CC(=O)O (stereo not drawn) : inactive
3. O=C(NOCCO)c1ccc2cncn2c1Nc1ccc(I)cc1F : 2.06 µM (active)

----------
assay.explanation: Cellular viability qHTS for adrenocortical cancer (ACC) cell line NCI-H295R (AID 1963990); further: nearly all actives have a fitted effect of over 60% in size; further: potency means the concentration at half of the fitted maximal effect
conditions.used: CellTiter-Glo ATP luminescence, 48 h; series mostly up to 46.1 µM
Records with an inconclusive call do not appear. The source made the active and inactive calls. Calls come from the whole dose curve; as a rule, active = well fitted cell-killing curve with a large enough effect; inconclusive = small, poorly fitted or top-dose-only effect; inactive = flat fitted curve, though single readings scatter.
recorded.metric: Potency

1) Cc1ccc(/C=N/NC(=O)c2ccccc2Oc2ccccc2)o1 : inactive
2) CCCCCCCCCC(=O)N[C@@H](Cc1c[nH]c2ccccc12)C(=O)N[C@H](CC(N)=O)C(=O)N[C@@H](CC(=O)O)C(=O)N[C@@H]1C(=O)NCC(=O)N[C@@H](CCCN)C(=O)N[C@@H](CC(=O)O)C(=O)N[C@H](C)C(=O)N[C@@H](CC(=O)O)C(=O)NCC(=O)N[C@H](CO)C(=O)N[C@@H]([C@@H](C)CC(=O)O)C(=O)N[C@@H](CC(=O)c2ccccc2N)C(=O)O[C@@H]1C : inactive
3) CC(C)(O)c1ccccc1CC[C@@H](SCC1(CC(=O)O)CC1)c1cccc(/C=C/c2ccc3ccc(Cl)cc3n2)c1 : inactive
4) CCOc1cc(N2CCC(O)CC2)ccc1Nc1ncc2c(n1)N(C)c1ccccc1C(=O)N2C : 10 µM (active)
5) CC(C)c1c(C(=O)Nc2ccccc2)c(-c2ccccc2)c(-c2ccc(F)cc2)n1CC[C@@H](O)C[C@@H](O)CC(=O)O : inactive
6) Cc1ccc(C)c(OCCCC(C)(C)C(=O)O)c1 : inactive
7) CCNC(=O)/C=C/c1cccc(Br)c1 : inactive
8) c1ccc2c(Oc3nc(Nc4ccc(N5CCOCC5)cc4)c4ncn(C5CCCCC5)c4n3)cccc2c1 : inactive
9) CC(=O)O[C@]1(C(C)=O)CC[C@H]2[C@@H]3C[C@H](C)C4=CC(=O)CC[C@]4(C)[C@H]3CC[C@@]21C : inactive
10) Cc1cccc(Oc2cnc(=O)[nH]c2)c1 : inactive
11) C=CC(=O)Nc1cccc(Nc2nc(Nc3ccc(Oc4ccnc(C(=O)NC)c4)cc3)ncc2F)c1 : 17.8 µM (active)
12) C[C@]12CCC(=O)C=C1C=C[C@@H]1[C@@H]2CC[C@@]2(C)[C@H]1CC[C@@]21CCC(=O)O1 : inactive
